Form field: activity coefficient (one value per entry).
test: activity coefficient (dimensionless); of the first substance listed, at infinite dilution; xn = mol fraction of the nth substance listed
experimental-parameters: 323.15 K; 101 kPa; Liquid; Chromatography; x1 = 0
measurement-name: activity coefficient

- molecule: "Cc1ccccc1 [toluene] + CC1(C)[C@@H]2CC[C@@]1(CS(=O)(=O)[O-])C(=O)C2.CCCCCCCCCCCCCC[N+](CCCCCC)(CCCCCC)CCCCCC"
  number: 0.41
- molecule: "CCCCCCCCCC [decane] + CCCCCCCCCCCCCC[N+](CCCCCC)(CCCCCC)CCCCCC.C[C@H](O)C(=O)[O-]"
  number: 1.67
- molecule: "CCC(=O)CC [pentan-3-one] + CCCCCCCCCCCCCC[N+](CCCCCC)(CCCCCC)CCCCCC.C[C@H](O)C(=O)[O-]"
  number: 0.55
- molecule: "Cc1cccc(C)c1 [1,3-dimethylbenzene] + CCCCCCCCCCCCCC[N+](CCCCCC)(CCCCCC)CCCCCC.C[C@H](O)C(=O)[O-]"
  number: 0.57
- molecule: "CCCCCC [hexane] + CCCCCCCCCCCCCC[N+](CCCCCC)(CCCCCC)CCCCCC.C[C@H](O)C(=O)[O-]"
  number: 1.11
- molecule: "c1ccncc1 [pyridine] + CC1(C)[C@@H]2CC[C@@]1(CS(=O)(=O)[O-])C(=O)C2.CCCCCCCCCCCCCC[N+](CCCCCC)(CCCCCC)CCCCCC"
  number: 0.32

----------
test: activity coefficient (dimensionless); of the first substance listed, at infinite dilution; xn = mol fraction of the nth substance listed
experimental-parameters: 323.15 K; 101 kPa; Liquid; Chromatography; x1 = 0

- compound: "CCCCCCCC [octane] + CC1(C)[C@@H]2CC[C@@]1(CS(=O)(=O)[O-])C(=O)C2.CCCCCCCCCCCCCC[N+](CCCCCC)(CCCCCC)CCCCCC"
  activity coefficient: 1.24
- compound: "CCC(=O)CC [pentan-3-one] + CC1(C)[C@@H]2CC[C@@]1(CS(=O)(=O)[O-])C(=O)C2.CCCCCCCCCCCCCC[N+](CCCCCC)(CCCCCC)CCCCCC"
  activity coefficient: 0.47
- compound: "CCCO [propan-1-ol] + CC1(C)[C@@H]2CC[C@@]1(CS(=O)(=O)[O-])C(=O)C2.CCCCCCCCCCCCCC[N+](CCCCCC)(CCCCCC)CCCCCC"
  activity coefficient: 0.09
- compound: "CO [methanol] + CC1(C)[C@@H]2CC[C@@]1(CS(=O)(=O)[O-])C(=O)C2.CCCCCCCCCCCCCC[N+](CCCCCC)(CCCCCC)CCCCCC"
  activity coefficient: 0.08
- compound: "CCOCC [diethyl ether] + CCCCCCCCCCCCCC[N+](CCCCCC)(CCCCCC)CCCCCC.C[C@H](O)C(=O)[O-]"
  activity coefficient: 0.84
- compound: "ClC(Cl)Cl [trichloromethane] + CCCCCCCCCCCCCC[N+](CCCCCC)(CCCCCC)CCCCCC.C[C@H](O)C(=O)[O-]"
  activity coefficient: 0.05
- compound: "CCCCCCCCCCC [undecane] + CCCCCCCCCCCCCC[N+](CCCCCC)(CCCCCC)CCCCCC.C[C@H](O)C(=O)[O-]"
  activity coefficient: 1.67
- compound: "ClC(Cl)(Cl)Cl [tetrachloromethane] + CCCCCCCCCCCCCC[N+](CCCCCC)(CCCCCC)CCCCCC.C[C@H](O)C(=O)[O-]"
  activity coefficient: 0.24
- compound: "CCCCCCCCC [nonane] + CC1(C)[C@@H]2CC[C@@]1(CS(=O)(=O)[O-])C(=O)C2.CCCCCCCCCCCCCC[N+](CCCCCC)(CCCCCC)CCCCCC"
  activity coefficient: 1.5
- compound: "Cc1ccccc1C [1,2-dimethylbenzene] + CC1(C)[C@@H]2CC[C@@]1(CS(=O)(=O)[O-])C(=O)C2.CCCCCCCCCCCCCC[N+](CCCCCC)(CCCCCC)CCCCCC"
  activity coefficient: 0.49
- compound: "CC(C)CO [2-methyl-1-propanol] + CC1(C)[C@@H]2CC[C@@]1(CS(=O)(=O)[O-])C(=O)C2.CCCCCCCCCCCCCC[N+](CCCCCC)(CCCCCC)CCCCCC"
  activity coefficient: 0.08
- compound: "ClC(Cl)Cl [trichloromethane] + CC1(C)[C@@H]2CC[C@@]1(CS(=O)(=O)[O-])C(=O)C2.CCCCCCCCCCCCCC[N+](CCCCCC)(CCCCCC)CCCCCC"
  activity coefficient: 0.05
- compound: "CCCCCCCCC [nonane] + CCCCCCCCCCCCCC[N+](CCCCCC)(CCCCCC)CCCCCC.C[C@H](O)C(=O)[O-]"
  activity coefficient: 1.67
- compound: "C#CCCCC [1-hexyne] + CC1(C)[C@@H]2CC[C@@]1(CS(=O)(=O)[O-])C(=O)C2.CCCCCCCCCCCCCC[N+](CCCCCC)(CCCCCC)CCCCCC"
  activity coefficient: 0.46
- compound: "CC#N [acetonitrile] + CC1(C)[C@@H]2CC[C@@]1(CS(=O)(=O)[O-])C(=O)C2.CCCCCCCCCCCCCC[N+](CCCCCC)(CCCCCC)CCCCCC"
  activity coefficient: 0.46
- compound: "C=CCCCC [hex-1-ene] + CC1(C)[C@@H]2CC[C@@]1(CS(=O)(=O)[O-])C(=O)C2.CCCCCCCCCCCCCC[N+](CCCCCC)(CCCCCC)CCCCCC"
  activity coefficient: 0.85
- compound: "c1ccsc1 [thiophene] + CC1(C)[C@@H]2CC[C@@]1(CS(=O)(=O)[O-])C(=O)C2.CCCCCCCCCCCCCC[N+](CCCCCC)(CCCCCC)CCCCCC"
  activity coefficient: 0.28
- compound: "CCCCCCC [heptane] + CCCCCCCCCCCCCC[N+](CCCCCC)(CCCCCC)CCCCCC.C[C@H](O)C(=O)[O-]"
  activity coefficient: 1.22
- compound: "CCOCC [diethyl ether] + CC1(C)[C@@H]2CC[C@@]1(CS(=O)(=O)[O-])C(=O)C2.CCCCCCCCCCCCCC[N+](CCCCCC)(CCCCCC)CCCCCC"
  activity coefficient: 0.73
- compound: "CC1CCCCC1 [methylcyclohexane] + CCCCCCCCCCCCCC[N+](CCCCCC)(CCCCCC)CCCCCC.C[C@H](O)C(=O)[O-]"
  activity coefficient: 0.86
- compound: "C1COCCO1 [1,4-dioxane] + CC1(C)[C@@H]2CC[C@@]1(CS(=O)(=O)[O-])C(=O)C2.CCCCCCCCCCCCCC[N+](CCCCCC)(CCCCCC)CCCCCC"
  activity coefficient: 0.52
- compound: "CCCC(C)=O [pentan-2-one] + CCCCCCCCCCCCCC[N+](CCCCCC)(CCCCCC)CCCCCC.C[C@H](O)C(=O)[O-]"
  activity coefficient: 0.6
